- Test system: NCI-N87
- EXPERIMENT: cells
- Assay type: cell-based
- MEASUREMENT_PARAMETERS: Homo sapiens, 120 h; NCI-N87 cells, five days co-incubation; read-out: IC50 (nM) NCI-N87
Property: IC50; scope: individual compounds

| COMPOUND | IC50 |
| --- | --- |
| COc1cc2c(cc1N)[C@@H](CC1CC1)CN[C@]21CS[C@@H]2c3c(OC(C)=O)c(C)c4c(c3[C@H](COC1=O)N1[C@@H]2[C@H]2c3c(cc(C)c(OC)c3O)C[C@@H]([C@@H]1C#N)N2C)OCO4 | 1 to 10 nM |
| COc1cc2c(cc1NC(=O)CO)CCN(C)[C@]21CS[C@@H]2c3c(OC(C)=O)c(C)c4c(c3[C@H](COC1=O)N1[C@@H]2[C@H]2c3c(cc(C)c(OC)c3O)C[C@@H]([C@@H]1C#N)N2C)OCO4 | < 1 nM |
| COc1cc2c(cc1N(C)C(=O)CO)CCN[C@]21CS[C@@H]2c3c(OC(C)=O)c(C)c4c(c3[C@H](COC1=O)N1[C@@H]2[C@H]2c3c(cc(C)c(OC)c3O)C[C@@H]([C@@H]1C#N)N2C)OCO4 | < 1 nM |

Please look up its IC50: COc1cc2c(cc1O)C(N)CN[C@]21CS[C@@H]2c3c(OC(C)=O)c(C)c4c(c3[C@H](COC1=O)N1[C@@H]2[C@H]2c3c(cc(C)c(OC)c3O)C[C@@H]([C@@H]1C#N)N2C)OCO4 (stereo partly shown)
10 to 200 nM

Fill in: IC50 of COc1cc(N)cc2c1[C@@]1(CS[C@@H]3c4c(OC(C)=O)c(C)c5c(c4[C@H](COC1=O)N1[C@@H]3[C@H]3c4c(cc(C)c(OC)c4O)C[C@@H]([C@@H]1C#N)N3C)OCO5)NCC2 is ___
< 1 nM

----------
- Test system: NCI-N87
- EXPERIMENT: cells
- Type: cell-based
- MEASUREMENT_PARAMETERS: Homo sapiens, 120 h; NCI-N87 cells, five days co-incubation; read-out: IC50 (nM) NCI-N87
RESULT_TYPE: IC50

| SUBSTANCE_SMILES | IC50 |
| --- | --- |
| COc1c(C)cc2c(c1O)[C@@H]1[C@@H]3[C@@H]4SC[C@]5(NCCc6cc(NC(=O)[C@H]7C[C@@H](O)C7)c(F)cc65)C(=O)OC[C@@H](c5c6c(c(C)c(OC(C)=O)c54)OCO6)N3[C@@H](C#N)[C@H](C2)N1C | 1 to 10 nM |
| COc1cc2c(cc1N)[C@H](CC1CC1)CN[C@]21CS[C@@H]2c3c(OC(C)=O)c(C)c4c(c3[C@H](COC1=O)N1[C@@H]2[C@H]2c3c(cc(C)c(OC)c3O)C[C@@H]([C@@H]1C#N)N2C)OCO4 | 10 to 200 nM |

Request the reported IC50 associated with COc1c(C)cc2c(c1O)[C@@H]1[C@@H]3[C@@H]4SC[C@]5(NCCc6c5ccc(NC(=O)CO)c6OC)C(=O)OC[C@@H](c5c6c(c(C)c(OC(C)=O)c54)OCO6)N3[C@@H](C#N)[C@H](C2)N1C
< 1 nM

The origin of these recorded values is patent EP4778932A1.
